These entries and their values trace back to PubChem BioAssay (NCI).

Please respond with reported TGI for every item in the list.
# System: DMS 273 small cell lung
# protocolText: NCI tumour cell line growth inhibition, 48 h

Name the recorded TGI for `Cc1nc2ccccc2c(=O)n1/N=C(\N=Nc1ccc(Cl)cc1)c1cccc(-c2ccco2)c1` .
> 100 µM

`COc1ccc2c(c1OC)C(=O)C2` , same question.
> 100 µM

Again, but for `O=C(n1c2ccccc2c2n[nH]c(=S)nc21)C(F)(F)F`
> 100 µM

Another compound to check: `O=c1[nH]c2nc3ccccc3c(=O)n2nc1Cc1ccccc1`
> 100 µM

Also need `COc1ccc2nc3cc(Cl)ccc3c(Nc3ccccc3-c3ccccc3Nc3c4ccc(Cl)cc4nc4ccc(OC)cc34)c2c1` , thanks.
> 54.9 µM

Same question for `COc1cc(/C=C/c2ccc(OC)c(OC)c2)oc(=O)c1` please.
> 250 µM
